Test: Cytotoxicity against mouse EAC cells assessed as nonviable cell at 10 ug/mL relative to doxorubicin
Assay type: functional, Ehrlich
Catalogue of compounds with associated Activity
Remember to put the unit after the number in your answer.

Task: Query: Activity; subject: COc1cc(N2C(N)=C(C#N)C(c3ccc(C)o3)C3=C2CC(C)(C)CC3=O)cc(OC)c1OC (centres undefined)
Result: 21%

====

Experiment: Cytotoxicity against mouse EAC cells assessed as nonviable cell at 10 ug/mL relative to doxorubicin
Type: functional, Ehrlich
measure-name: Activity (%)
// return numeric value only (unit: %, not printed)

Past entries and their recorded results:
Task: Query: Activity; subject: COc1cc(N2C(N)=C(C#N)C(c3c(O)ccc4ccccc34)C3=C2CC(C)(C)CC3=O)cc(OC)c1OC (stereo not given)
Result: 2

Task: Query: Activity; subject: COc1cc(N2C(N)=C(C#N)C(c3ccc(OC)c4ccccc34)C3=C2CC(C)(C)CC3=O)cc(OC)c1OC (stereo not given)
Result: 10

Task: Query: Activity; subject: COc1cc(N2C(N)=C(C#N)C(c3ccc([N+](=O)[O-])cc3)C3=C2CC(C)(C)CC3=O)cc(OC)c1OC (stereo not given)
Result: 10

Continuing:
Task: Query: Activity; subject: COc1ccc(C2C(C#N)=C(N)N(c3cc(OC)c(OC)c(OC)c3)C3=C2C(=O)CC(C)(C)C3)cc1 (stereo not given)
Result: 0

Task: Query: Activity; subject: COc1cc(N2C(N)=C(C#N)C(/C=C/c3ccccc3)C3=C2CC(C)(C)CC3=O)cc(OC)c1OC (stereo not given)
Result: 10
